# credit: patent US20260242478A1

Quick list: phage binding ELISA signal (Anti-PSMA Fab, wells pre-incubated with PSMA antigen) per entry.
# MEASURED ON: T1, 006 PSMA Fab
# T1 construct: also called Anti-PSMA Fab
# ASSAY OVERVIEW: clonal phage ELISA; biotinylated PSMA Fab on neutravidin plate, PSMA antigen as competitor, anti-M13-HRP
Reply: number alone, nothing else.

Field: example entries. Status: answers known.
- BINDER: "DGLICQPSWMCTGL [Phage-4001]"
  OBSERVED: 0.0705
- BINDER: "HVTMCSPNWMCWGL [Phage-4006]"
  OBSERVED: 0.0703

Now look at this one.
What does the record list as phage binding ELISA signal (Anti-PSMA Fab, wells pre-incubated with PSMA antigen) for VQRVCVPTWMCDVF [Phage-3999] ?
0.07
